target: DestiTA (Desulfomonile tiedjei, UniProt I4C827, T199N); construct: recombinant in E. coli Rosetta(DE3) pLysS, codon-optimized gene in modified pET-21d; N-terminal (His)6-TEV tag cut with TEV protease; homodimer about 68 kDa by gel filtration; assay: thermal shift assay (ThermoFluor) on apoenzyme, quadratic fit; details: 50 mM K-phosphate, pH 8.0; 2 µM apoenzyme incubated with 0.5–500 µM PLP 1 h at 25 °C; covalent (Schiff base to K158)
Sequence (I4C827 entry or part of it T199N): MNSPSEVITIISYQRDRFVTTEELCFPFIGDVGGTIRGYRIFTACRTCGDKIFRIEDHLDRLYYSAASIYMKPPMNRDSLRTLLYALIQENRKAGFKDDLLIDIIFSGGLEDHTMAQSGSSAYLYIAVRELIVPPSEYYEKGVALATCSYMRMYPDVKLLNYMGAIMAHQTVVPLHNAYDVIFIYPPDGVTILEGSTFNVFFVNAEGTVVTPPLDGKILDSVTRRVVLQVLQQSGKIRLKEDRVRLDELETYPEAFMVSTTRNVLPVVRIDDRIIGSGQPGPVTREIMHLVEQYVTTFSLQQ
measuredParameter: Kd (µM)
Write it as a number; the unit µM goes unstated.

Field request: Kd | item: Cc1ncc(COP(=O)(O)O)c(C=O)c1O [PLP] 33
